- assayed-system: Thromboxane A2 receptor (Homo sapiens, UniProt P21731); note: assay procedure not described here
- Sequence (P21731 whole entry): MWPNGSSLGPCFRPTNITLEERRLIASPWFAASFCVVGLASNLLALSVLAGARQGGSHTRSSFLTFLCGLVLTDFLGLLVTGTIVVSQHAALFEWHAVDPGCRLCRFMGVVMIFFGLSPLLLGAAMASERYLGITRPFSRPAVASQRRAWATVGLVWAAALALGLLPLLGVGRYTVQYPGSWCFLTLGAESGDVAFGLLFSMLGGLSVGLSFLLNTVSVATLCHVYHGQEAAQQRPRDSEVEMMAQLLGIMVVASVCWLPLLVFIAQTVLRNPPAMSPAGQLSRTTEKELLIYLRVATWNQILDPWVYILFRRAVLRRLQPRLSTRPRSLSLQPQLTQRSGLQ
Quick list: AC50 per entry.

> print(dat)
                                   compound  readout.type      val
1  C[C@]12C=CC(=O)C=C1CC[C@@H]1[C@@H]2[C@@H](O)C[C@@]2(C)[C@H]1CC[C@]2(O)C(=O)CO [PREDNISOLONE]          AC50  > 30 µM
2          NCC1(CC(=O)O)CCCCC1 [GABAPENTIN]          AC50  > 30 µM
3  COc1ccc(-c2cc(=S)ss2)cc1 [ANETHOLTRITHION]          AC50    16 µM

Fetch value of AC50 on Thromboxane A2 receptor (Homo sapiens, UniProt P21731) for CN(C)CCOC(=O)C(c1ccccc1)C1(O)CCCC1 (configuration not stated) [CYCLOPENTOLATE] .
> 10 µM

Enter recorded AC50 with Thromboxane A2 receptor (Homo sapiens, UniProt P21731) for OCC(CO)N[C@H]1C[C@](O)(CO)[C@@H](O)[C@H](O)[C@H]1O [VOGLIBOSE] here.
> 30 µM

GET AC50 where system = Thromboxane A2 receptor (Homo sapiens, UniProt P21731) and item = "O=C(O)c1ccc2nc(-c3cc(Cl)cc(Cl)c3)oc2c1"
> 30 µM

====

- assayed-system: Alpha-2A adrenergic receptor (Homo sapiens, UniProt P08913); note: assay procedure not described here
- Sequence (P08913 whole entry): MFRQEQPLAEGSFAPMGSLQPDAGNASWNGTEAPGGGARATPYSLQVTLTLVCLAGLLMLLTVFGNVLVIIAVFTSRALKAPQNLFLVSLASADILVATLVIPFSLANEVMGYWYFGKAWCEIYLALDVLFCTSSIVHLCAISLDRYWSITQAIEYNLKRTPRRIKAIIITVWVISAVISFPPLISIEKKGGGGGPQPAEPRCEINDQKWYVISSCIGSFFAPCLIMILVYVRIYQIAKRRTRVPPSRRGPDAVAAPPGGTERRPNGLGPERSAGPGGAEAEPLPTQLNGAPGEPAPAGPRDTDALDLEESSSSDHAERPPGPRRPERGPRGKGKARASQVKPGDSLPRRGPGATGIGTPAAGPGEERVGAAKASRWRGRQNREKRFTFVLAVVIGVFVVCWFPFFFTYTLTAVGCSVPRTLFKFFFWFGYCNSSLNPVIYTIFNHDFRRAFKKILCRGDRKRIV
Measured AC50 values are reported for all entries that follow.

> print(dat)
                                   compound  readout.type      val
1  CC(=O)SCC(Cc1ccccc1)C(=O)NCC(=O)OCc1ccccc1 (stereo not drawn)          AC50  > 10 µM
2            CN(C)CCC=C1c2ccccc2CCc2ccccc21          AC50  2.92 µM
3  CN(C)CCCC1(c2ccc(F)cc2)OCc2cc(C#N)ccc21 (stereo not drawn)          AC50  > 10 µM
4  CN1C(=O)CN=C(c2ccccc2F)c2cc([N+](=O)[O-])ccc21          AC50  > 10 µM
5  Oc1cc(O)c2c(c1)O[C@H](c1ccc(O)c(O)c1)[C@@H](O)C2          AC50  > 10 µM

Find the measured AC50 of "C[C@H](CS)C(=O)N1CCC[C@H]1C(=O)O" and report it.
> 10 µM

Given "C[C@]12CCC(=O)C=C1CC[C@H]1[C@@H]3CC[C@](O)(C(=O)CO)[C@@]3(C)C[C@H](O)[C@@]12F" , respond with its AC50.
> 10 µM

Retrieve AC50 measured for N=C(N)NC(=O)c1nc(Cl)c(N)nc1N [AMILORIDE] and print it.
> 10 µM

Item "Nc1nnc(-c2cccc(Cl)c2Cl)c(N)n1" : provide AC50
> 10 µM

Output measured AC50 for this item: "Cc1ccc(O)c([C@H](CCN(C(C)C)C(C)C)c2ccccc2)c1"
> 10 µM

Quote AC50 reported for CCN(CC)C(C)C(=O)c1ccccc1 (stereo not drawn) please.
4.46 µM

Specify measured AC50 for OCCOCCN1CCN(C(c2ccccc2)c2ccc(Cl)cc2)CC1 (stereo not drawn) [HYDROXYZINE] .
12.8 µM

Please indicate AC50 recorded for "CCOC(=O)[C@H](CCc1ccccc1)N[C@@H](C)C(=O)N1Cc2ccccc2C[C@H]1C(=O)O"
> 10 µM
